# Tested on: Haemonchus contortus
# assay-remarks: microbe, parasite or virus in culture
# Format: cell-based
# particulars: H. contortus Kirby isolate, egg to infective L3, 6 days, 26 °C; three experiments of duplicate assays, ± SEM; for 1a the component at higher concentrations (about 90% of population); read-out: Anthelmintic Activity (IC50), inhibition of larval development
recorded-endpoint: pIC50
Notebook: values listed as pIC50 are -log10 of the concentration (mol/L).

>>> print(df.to_string())
                                  substance  result_number
0  H-IDWKKVDWKKVSKKTSKVMLKASKFL-NH2 [Analogue 3b]           4.19

Q. # get_value(readout='pIC50', item= H-LIGLVSKGTSVLVKTVSKKVLKQ-NH2 [Analogue 4b] )
A. 4.21

----------
# System: Haemonchus contortus
# assay-remarks: microbe, parasite or virus in culture
# Format: cell-based
# particulars: Haemonchus contortus, 144 h, read-out: Anthelmintic Activity (IC50), inhibition of larval development
recorded-endpoint: IC50 (nM)
Respond numerically; units are nM and should not be typed.

Q. Query the reported IC50 for Haemonchus contortus; item: c1ccc([C@H]2CN3CCSC3=N2)cc1 [levamisole, reference compound]
A. 680
